Data origin, for the record: patent US10196411B2

- assay: Pharmacokinetic evaluation of oral administration and intravenous injection in rats
- Format: in vivo, SD rats
- stated-conditions: male, SD, rat, in vivo; Compound 3 in plasma, rats, oral administration of Compound 3 (15 mg/kg); read-out: Vz/F
Where a name gives a salt, the structure may show the parent alone.
assay-endpoint: Vd/F
A complete answer gives the number and then names the unit.

In: Quickly give me recorded Vd/F for O=C(Nc1ncc([N+](=O)[O-])s1)c1ccccc1OP(=O)(O)O [Compound 3, phosphate monosodium salt]
Out: 198 L/kg

* * *

- assay: Pharmacokinetic evaluation of oral administration and intravenous injection in rats
- Type: in vivo, SD rats
- stated-conditions: male, SD, rat, in vivo; Compound 3 in plasma, rats, oral administration of Compound 3 (15 mg/kg)
Structures can show the parent of a compound that is named as a salt.
assay-endpoint: AUC(0-inf) (ng·h/mL)
Please state the figure in ng·h/mL; there is no need to write the unit.

In: Using the record for O=C(Nc1ncc([N+](=O)[O-])s1)c1ccccc1OP(=O)(O)O [Compound 3, phosphate monosodium salt] , state its measured AUC(0-inf).
Out: 154

* * *

- assay: Pharmacokinetic evaluation of oral administration and intravenous injection in rats
- Type: in vivo, SD rats
- stated-conditions: male, SD, rat, in vivo; rats, oral administration of Compound 3 (15 mg/kg), 1 h; read-out: plasma concentration of Compound 3
Structures can show the parent of a compound that is named as a salt.
assay-endpoint: concentration at 1 h
# output: number + unit

In: Supply measured concentration at 1 h of O=C(Nc1ncc([N+](=O)[O-])s1)c1ccccc1OP(=O)(O)O [Compound 3, phosphate monosodium salt] in your reply.
Out: 24.4 ng/mL

* * *

- assay: Pharmacokinetic evaluation of oral administration and intravenous injection in rats
- Assay type: in vivo, SD rats
- stated-conditions: male, SD, rat, in vivo; rats, oral administration of Compound 3 (15 mg/kg), 0.08 h; read-out: plasma concentration of Compound 3
Structures can show the parent of a compound that is named as a salt.
assay-endpoint: concentration at 0.08 h
Answers without a unit are incomplete; give the number and then its unit.

In: Tell me its concentration at 0.08 h given O=C(Nc1ncc([N+](=O)[O-])s1)c1ccccc1OP(=O)(O)O [Compound 3, phosphate monosodium salt] as the entry.
Out: 99.1 ng/mL

* * *

- assay: Pharmacokinetic evaluation of oral administration and intravenous injection in rats
- Type: in vivo, SD rats
- stated-conditions: male, SD, rat, in vivo; rats, intravenous injection of Compound 3 (5 mg/kg), 4 h; read-out: plasma concentration of Compound 3
Counter-ions that a name gives are not always drawn.
assay-endpoint: concentration at 4 h (ng/mL)
// note: answer is a bare numeric in ng/mL

In: Look up and report measured concentration at 4 h for this entry: O=C(Nc1ncc([N+](=O)[O-])s1)c1ccccc1OP(=O)(O)O [Compound 3, phosphate monosodium salt]
Out: 13.9

* * *

- assay: Pharmacokinetic evaluation of oral administration and intravenous injection in rats
- Type: in vivo, SD rats
- stated-conditions: male, SD, rat, in vivo; Compound 3 in plasma, rats, intravenous injection of Compound 3 (5 mg/kg)
Structures can show the parent of a compound that is named as a salt.
assay-endpoint: Cmax (ng/mL)
Lab book: enter the figure in ng/mL, no units written.

In: Please look at this compound and report its Cmax: O=C(Nc1ncc([N+](=O)[O-])s1)c1ccccc1OP(=O)(O)O [Compound 3, phosphate monosodium salt]
Out: 26700
